protocol-text: Toxicity in po dosed mouse infected with Trichomonas vaginalis
Format: organism-based
test-parameters: in vivo
Response field label takes y when LD50 is strictly below 700 mg/kg and n in all other cases.

LD50 strictly < 700 mg/kg for this compound? CCCC/C(=C\c1cnc([N+](=O)[O-])n1C)[N+](=O)[O-]
y

LD50 strictly < 700 mg/kg for this compound? Cc1ccc(S(=O)(=O)OCCn2c(C)cnc2[N+](=O)[O-])cc1
n

LD50 strictly < 700 mg/kg for this compound? Cc1cnc([N+](=O)[O-])n1CCOS(C)(=O)=O
n

LD50 strictly < 700 mg/kg for this compound? C=Cc1cnc([N+](=O)[O-])n1C
y

LD50 strictly < 700 mg/kg for this compound? CC(=O)/C=C/c1cnc([N+](=O)[O-])n1C
n

***
LD50 strictly < 700 mg/kg for this compound? COC(=O)/C=C/c1cnc([N+](=O)[O-])n1C
n

LD50 strictly < 700 mg/kg for this compound? C=Cn1c(C)cnc1[N+](=O)[O-]
y

----------
Test system: Candida albicans
protocol-text: Antimicrobial activity against Candida albicans SKF 2270 by tube dilution method
Assay type: functional
Known MIC of a selection of compounds

Solved entries (count: 3):
Fill in: MIC of C=Cn1c(C)cnc1[N+](=O)[O-] is ___
> 100 µg/mL

Fill in: MIC of COC(=O)c1cnc([N+](=O)[O-])n1C is ___
> 100 µg/mL

Fill in: MIC of CCOC(=O)/C=C/c1cnc([N+](=O)[O-])n1C is ___
> 100 µg/mL

***
Fill in: MIC of CCCC/C(=C\c1cnc([N+](=O)[O-])n1C)[N+](=O)[O-] is ___
20 µg/mL

Fill in: MIC of CC(=O)c1cnc([N+](=O)[O-])n1C is ___
> 100 µg/mL

Fill in: MIC of Cn1c(/C=C/C=[N+](/C)[O-])cnc1[N+](=O)[O-] is ___
> 100 µg/mL

Fill in: MIC of Cn1c(C=O)cnc1[N+](=O)[O-] is ___
50 µg/mL

Fill in: MIC of Cc1cc(-c2cnc([N+](=O)[O-])n2C)n(CCO)n1 is ___
> 100 µg/mL

Fill in: MIC of CC(/C=C/c1cnc([N+](=O)[O-])n1C)=N\NC(N)=S is ___
> 50 µg/mL

Fill in: MIC of C=Cc1cnc([N+](=O)[O-])n1C is ___
100 µg/mL

Fill in: MIC of CC(/C=C/c1cnc([N+](=O)[O-])n1C)=N\N(C)C is ___
> 100 µg/mL

Fill in: MIC of Cn1c(/C=[N+](/C)[O-])cnc1[N+](=O)[O-] is ___
> 100 µg/mL

----------
Test system: Streptococcus pneumoniae
protocol-text: Antimicrobial activity against Diplococcus pneumoniae UC41 by tube dilution method
Type: functional
property: MIC

Solved entries (count: 8):
Fill in: MIC of Cc1ccc(S(=O)(=O)OCCn2c(C)cnc2[N+](=O)[O-])cc1 is ___
> 100 µg/mL

Fill in: MIC of Cc1cnc(/N=C/C=C/c2cnc([N+](=O)[O-])n2C)n1C is ___
> 20 µg/mL

Fill in: MIC of CCCCC(C(O)c1cnc([N+](=O)[O-])n1C)[N+](=O)[O-] (stereo unspecified) is ___
100 µg/mL

Fill in: MIC of O=C1CN(/N=C/c2ccc([N+](=O)[O-])o2)C(=O)N1 is ___
1 µg/mL

Fill in: MIC of COC(=O)c1cnc([N+](=O)[O-])n1C is ___
50 µg/mL

Fill in: MIC of CCOC(=O)/C=C/c1cnc([N+](=O)[O-])n1C is ___
100 µg/mL

Fill in: MIC of CC(=O)/C=C/c1cnc([N+](=O)[O-])n1C is ___
100 µg/mL

Fill in: MIC of CCCC/C(=C\c1cnc([N+](=O)[O-])n1C)[N+](=O)[O-] is ___
2 µg/mL

***
Fill in: MIC of Br.CC(/C=C/c1cnc([N+](=O)[O-])n1C)=N\NC1=NCCN1 is ___
20 µg/mL

Fill in: MIC of Cc1cnc([N+](=O)[O-])n1CCOS(C)(=O)=O is ___
> 100 µg/mL

Fill in: MIC of COC(=O)/C=C/c1cnc([N+](=O)[O-])n1C is ___
> 100 µg/mL

----------
protocol-text: Toxicity in sc dosed mouse infected with Escherichia coli
Type: organism-based
test-parameters: in vivo
Known LD50 of a selection of compounds
Please state the figure in mg/kg; there is no need to write the unit.

Fill in: LD50 of CC(/C=C/c1cnc([N+](=O)[O-])n1C)=[N+](\C)[O-] is ___
700

***
Fill in: LD50 of Cn1c(/C=C/C=[N+](/C)[O-])cnc1[N+](=O)[O-] is ___
700

----------
Test system: Streptococcus pneumoniae
protocol-text: Antimicrobial activity against Diplococcus pneumoniae UC41 by tube dilution method
Type: functional
Known MIC of a selection of molecules
Please state the figure in µg/mL; there is no need to write the unit.

Solved entries (count: 4):
Give the reported MIC for CC(/C=C/c1cnc([N+](=O)[O-])n1C)=[N+](\C)[O-] (system: Streptococcus pneumoniae).
50

Give the reported MIC for CC(=O)c1cnc([N+](=O)[O-])n1C (system: Streptococcus pneumoniae).
20

Give the reported MIC for CC(/C=C/c1cnc([N+](=O)[O-])n1C)=N\N1CCN(CCO)CC1 (system: Streptococcus pneumoniae).
100

Give the reported MIC for Cn1c(/C=[N+](/C)[O-])cnc1[N+](=O)[O-] (system: Streptococcus pneumoniae).
50

***
Give the reported MIC for Cc1cc(-c2cnc([N+](=O)[O-])n2C)n(CCO)n1 (system: Streptococcus pneumoniae).
50

Give the reported MIC for Cn1c(/C=C/C=O)cnc1[N+](=O)[O-] (system: Streptococcus pneumoniae).
5

----------
Test system: Shigella sonnei
protocol-text: Antimicrobial activity against Shigella sonnei ATCC 9290 by tube dilution method
Format: functional
Known MIC of a selection of compounds

Solved entries (count: 5):
Give the reported MIC for CC(/C=C/c1cnc([N+](=O)[O-])n1C)=N\N1CCN(CCO)CC1 (system: Shigella sonnei).
> 100 µg/mL

Give the reported MIC for CC(/C=C/c1cnc([N+](=O)[O-])n1C)=N\N1CCCC(O)C1 (stereo unspecified) (system: Shigella sonnei).
> 100 µg/mL

Give the reported MIC for CC(/C=C/c1cnc([N+](=O)[O-])n1C)=N\NC(N)=S (system: Shigella sonnei).
> 50 µg/mL

Give the reported MIC for CC(/C=C/c1cnc([N+](=O)[O-])n1C)=N\N(C)C (system: Shigella sonnei).
> 100 µg/mL

Give the reported MIC for Cc1cnc(/N=C/C=C/c2cnc([N+](=O)[O-])n2C)n1C (system: Shigella sonnei).
> 20 µg/mL

Could you now look at the following compound, please?
Give the reported MIC for Br.CC(/C=C/c1cnc([N+](=O)[O-])n1C)=N\NC1=NCCN1 (system: Shigella sonnei).
> 100 µg/mL

----------
Tested on: Streptococcus pneumoniae
protocol-text: Antimicrobial activity against Diplococcus pneumoniae UC41 by tube dilution method
Assay type: functional
property: MIC

Fill in: MIC of CC(/C=C/c1cnc([N+](=O)[O-])n1C)=N\NC(N)=S is ___
> 50 µg/mL

***
Fill in: MIC of C=Cn1c(C)cnc1[N+](=O)[O-] is ___
> 100 µg/mL

Fill in: MIC of Cn1c(C=O)cnc1[N+](=O)[O-] is ___
20 µg/mL

Fill in: MIC of C=Cc1cnc([N+](=O)[O-])n1C is ___
> 100 µg/mL

Fill in: MIC of CC(/C=C/c1cnc([N+](=O)[O-])n1C)=N\N1CCCC(O)C1 (configuration not stated) is ___
100 µg/mL

Fill in: MIC of Cn1c(/C=C/C=[N+](/C)[O-])cnc1[N+](=O)[O-] is ___
100 µg/mL

Fill in: MIC of CC(/C=C/c1cnc([N+](=O)[O-])n1C)=N\N(C)C is ___
> 100 µg/mL

The measurements presented in this section are drawn from ChEMBL document CHEMBL3244225.
